// each record: one item and its Ki for Adenosine receptor A2a (Rattus norvegicus)

Study these solved cases before continuing.
# Ki measured on Adenosine receptor A2a (Rattus norvegicus) for item OC[C@H]1O[C@@H](n2cnc3c(N[C@@H]4CCOC4)ncnc32)[C@H](O)[C@@H]1O = > 100 µM

Response field Ki (Adenosine receptor A2a (Rattus norvegicus)) for item OC[C@H]1O[C@@H](n2cnc3c(NC4CC5CCC4N5)ncnc32)[C@H](O)[C@@H]1O (some centres not stated) : 7.8 µM

// assay Adenosine receptor A2a (Rattus norvegicus), entry OC[C@H]1O[C@@H](n2cnc3c(N[C@@H]4CC[Se]C4)ncnc32)[C@H](O)[C@@H]1O , Ki value = 5.5 µM

Per the reported Adenosine receptor A2a (Rattus norvegicus) data, O=C(OCc1ccccc1Br)N1[C@H]2CC[C@H]1[C@H](Nc1ncnc3c1ncn3[C@@H]1O[C@H](CO)[C@@H](O)[C@H]1O)C2 has Ki of > 100 µM

Ki for Adenosine receptor A2a (Rattus norvegicus) with input O=C(OCc1ccccc1)N1CC[C@@H](Nc2ncnc3c2ncn3[C@@H]2O[C@H](CO)[C@@H](O)[C@H]2O)C1 equals > 100 µM

Log: Adenosine receptor A2a (Rattus norvegicus), molecule OC[C@H]1O[C@@H](n2cnc3c(N[C@@H]4CCSC4)ncnc32)[C@H](O)[C@@H]1O , Ki = 9.7 µM

Continuing:
Known value: Adenosine receptor A2a (Rattus norvegicus) Ki of the molecule O=C(OCc1ccccc1Cl)N1[C@H]2CC[C@H]1[C@H](Nc1ncnc3c1ncn3[C@@H]1O[C@H](CO)[C@@H](O)[C@H]1O)C2 equals > 100 µM
